tgt: human CTLA-4 (human) (UniProt P16410)
Sequence (P16410 36-223): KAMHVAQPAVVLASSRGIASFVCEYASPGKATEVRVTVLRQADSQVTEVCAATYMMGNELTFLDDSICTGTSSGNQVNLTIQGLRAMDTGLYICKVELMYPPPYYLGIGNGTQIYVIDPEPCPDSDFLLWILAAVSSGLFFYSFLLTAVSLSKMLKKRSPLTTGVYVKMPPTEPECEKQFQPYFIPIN
test-method-notes: flow cytometry, CHO cells expressing huCTLA4; MFI ratio to WT CD80 ECD-Fc (R&D)
parameter: log10 Fold change to WT CD80 (log10 of the value in fold)
Kindly note that the scale is log10 and the underlying Fold change to WT CD80 is in fold.

Some entries whose results are on file:
binder	log10 Fold change to WT CD80
variant CD80 IgV-Fc E35D/D46E/M47V/L97Q (Fc fusion) VIHVTKEVKEVATLSCGHNVSVEELAQTRIYWQKDKKMVLTMMSGEVNIWPEYKNRTIFDITNNLSIVILALRPSDEGTYECVVLKYEKDAFKREHQAEVTLSVKAD	0.23
variant CD80 IgV-Fc H18Y/Q33L/E35D/M47I (Fc fusion) VIHVTKEVKEVATLSCGYNVSVEELAQTRIYWLKDKKMVLTMMSGDINIWPEYKNRTIFDITNNLSIVILALRPSDEGTYECVVLKYEKDAFKREHLAEVTLSVKAD	-1.52
variant CD80 IgV-Fc A26E/E35D/M43T/M47L/L85Q/R94Q (Fc fusion) VIHVTKEVKEVATLSCGHNVSVEELEQTRIYWQKDKKMVLTMTSGDLNIWPEYKNRTIFDITNNLSIVILALRPSDEGTYECVVQKYEKDAFKQEHLAEVTLSVKAD	0.19
variant CD80 IgV-Fc Q33L/E35D/M47I/L85Q (Fc fusion) VIHVTKEVKEVATLSCGHNVSVEELAQTRIYWLKDKKMVLTMMSGDINIWPEYKNRTIFDITNNLSIVILALRPSDEGTYECVVQKYEKDAFKREHLAEVTLSVKAD	-0.96
variant CD80 IgV-Fc V22A/R29H/E35D/D46E/M47I (Fc fusion) VIHVTKEVKEVATLSCGHNVSAEELAQTHIYWQKDKKMVLTMMSGEINIWPEYKNRTIFDITNNLSIVILALRPSDEGTYECVVLKYEKDAFKREHLAEVTLSVKAD	-0.37
variant CD80 IgV-Fc H18L/V22A/E35D/M47L/N48T/L85Q (Fc fusion) VIHVTKEVKEVATLSCGLNVSAEELAQTRIYWQKDKKMVLTMMSGDLTIWPEYKNRTIFDITNNLSIVILALRPSDEGTYECVVQKYEKDAFKREHLAEVTLSVKAD	0.32

Inquiry: Param item = variant CD80 IgV-Fc Q27H/Q33L/E35D/M47V/N55D/L85Q/K89N (Fc fusion) VIHVTKEVKEVATLSCGHNVSVEELAHTRIYWLKDKKMVLTMMSGDVNIWPEYKDRTIFDITNNLSIVILALRPSDEGTYECVVQKYENDAFKREHLAEVTLSVKAD ; retrieve measured log10 Fold change to WT CD80.
Reply text: -0.51

Inquiry: Param item = variant CD80 IgV-Fc A26E/Q33L/E35D/M47L (Fc fusion) VIHVTKEVKEVATLSCGHNVSVEELEQTRIYWLKDKKMVLTMMSGDLNIWPEYKNRTIFDITNNLSIVILALRPSDEGTYECVVLKYEKDAFKREHLAEVTLSVKAD ; retrieve measured log10 Fold change to WT CD80.
Reply text: -2.00

Inquiry: Param item = variant CD80 IgV-Fc Y31S/E35D/M47L/T79L/E88G (Fc fusion) VIHVTKEVKEVATLSCGHNVSVEELAQTRISWQKDKKMVLTMMSGDLNIWPEYKNRTIFDITNNLSIVILALRPSDEGLYECVVLKYGKDAFKREHLAEVTLSVKAD ; retrieve measured log10 Fold change to WT CD80.
Reply text: -2.00

Inquiry: Param item = variant CD80 IgV-Fc A26E/Q33R/E35D/M47L/L85Q (Fc fusion) VIHVTKEVKEVATLSCGHNVSVEELEQTRIYWRKDKKMVLTMMSGDLNIWPEYKNRTIFDITNNLSIVILALRPSDEGTYECVVQKYEKDAFKREHLAEVTLSVKAD ; retrieve measured log10 Fold change to WT CD80.
Reply text: -2.00

Inquiry: Param item = variant CD80 IgV-Fc H18Y/E35D/M47L (Fc fusion) VIHVTKEVKEVATLSCGYNVSVEELAQTRIYWQKDKKMVLTMMSGDLNIWPEYKNRTIFDITNNLSIVILALRPSDEGTYECVVLKYEKDAFKREHLAEVTLSVKAD ; retrieve measured log10 Fold change to WT CD80.
Reply text: 0.20
